system: Escherichia coli ATCC 25922; assay type: cell-based; settings: ATCC 25922, 16 h
value-type: MIC (µM)
Just the number in µM, nothing appended.

Query block: What does the data say about its MIC? Entry: CC(C)C[C@H](NC(=O)[C@H](Cc1ccccc1)NC(=O)[C@@H]1CCCN1C(=O)[C@H](Cc1c[nH]c2ccccc12)NC(=O)[C@H](Cc1c[nH]c2ccccc12)NC(=O)[C@H](Cc1c[nH]c2ccccc12)NC(=O)[C@@H]1CCCN1C(=O)[C@H](Cc1ccccc1)NC(=O)[C@H](CCCCNC(=N)N)NC(=O)[C@H](CCCCNC(=N)N)NC(=O)[C@@H](N)C(C)C)C(=O)N[C@@H](CCCCNC(=N)N)C(=O)N[C@@H](CCCCNC(=N)N)C(N)=O [Tritrp–hArg]
Result block: 4

====

Parameter: MIC. Scope: all listed entries.
test system: Escherichia coli ATCC 25922; format: cell-based; conditions: ATCC 25922, 16 h
Where a SMILES comes first, the peptide text is derived from it. [ ]: non-standard residue; d: D form. Orn = NCCC[C@H](N)C(=O)O
Just the number in µM, nothing appended.

>  <molecule>
CC[C@H](C)[C@H](N)C(=O)N[C@@H](CC(C)C)C(=O)N1CCC[C@H]1C(=O)N[C@@H](Cc1c[nH]c2ccccc12)C(=O)N[C@@H](CCCCN)C(=O)N[C@@H](Cc1c[nH]c2ccccc12)C(=O)N1CCC[C@H]1C(=O)N[C@@H](Cc1c[nH]c2ccccc12)C(=O)N[C@@H](Cc1c[nH]c2ccccc12)C(=O)N1CCC[C@H]1C(=O)N[C@@H](Cc1c[nH]c2ccccc12)C(=O)N[C@@H](CCCNC(=N)N)C(=O)N[C@@H](CCCNC(=N)N)C(N)=O [Indolicidin, reference compound]

>  <measured-number>
8

$$$$

Query block: Notebook entry, Escherichia coli ATCC 25922 assay: MIC of CC(C)C[C@H](NC(=O)[C@H](Cc1ccccc1)NC(=O)[C@@H]1CCCN1C(=O)[C@H](Cc1c[nH]c2ccccc12)NC(=O)[C@H](Cc1c[nH]c2ccccc12)NC(=O)[C@H](Cc1c[nH]c2ccccc12)NC(=O)[C@@H]1CCCN1C(=O)[C@H](Cc1ccccc1)NC(=O)[C@H](CCCN)NC(=O)[C@H](CCCN)NC(=O)[C@@H](N)C(C)C)C(=O)N[C@@H](CCCN)C(=O)N[C@@H](CCCN)C(N)=O [Tritrp–Orn] (H-V[Orn][Orn]FPWWWPFL[Orn][Orn]-NH2) = ?
Result block: 16

====

system: Escherichia coli ATCC 25922; assay type: cell-based; conditions: ATCC 25922, 16 h
Where a SMILES comes first, the peptide text is derived from it. [ ]: non-standard residue; d: D form. Dap = NC[C@H](N)C(=O)O
Parameter: MIC. Scope: all listed entries.
Just the number in µM, nothing appended.

>  <compound>
CC(C)C[C@H](NC(=O)[C@H](Cc1ccccc1)NC(=O)[C@@H]1CCCN1C(=O)[C@H](Cc1c[nH]c2ccccc12)NC(=O)[C@H](Cc1c[nH]c2ccccc12)NC(=O)[C@H](Cc1c[nH]c2ccccc12)NC(=O)[C@@H]1CCCN1C(=O)[C@H](Cc1ccccc1)NC(=O)[C@H](CCNC(=N)N)NC(=O)[C@H](CCNC(=N)N)NC(=O)[C@@H](N)C(C)C)C(=O)N[C@@H](CCNC(=N)N)C(=O)N[C@@H](CCNC(=N)N)C(N)=O [Tritrp–Agb]

>  <unit-tag>
µM

>  <measured-number>
4

$$$$

Query block: What does the data say about its MIC? Entry: CC(C)C[C@H](NC(=O)[C@H](Cc1ccccc1)NC(=O)[C@@H]1CCCN1C(=O)[C@H](Cc1c[nH]c2ccccc12)NC(=O)[C@H](Cc1c[nH]c2ccccc12)NC(=O)[C@H](Cc1c[nH]c2ccccc12)NC(=O)[C@@H]1CCCN1C(=O)[C@H](Cc1ccccc1)NC(=O)[C@H](CN)NC(=O)[C@H](CN)NC(=O)[C@@H](N)C(C)C)C(=O)N[C@@H](CN)C(=O)N[C@@H](CN)C(N)=O [Tritrp–Dap] (H-V[Dap][Dap]FPWWWPFL[Dap][Dap]-NH2)
Result block: 4
